Measured On: T1, mouse BR3 extracellular domain (mouse, UniProt Q9D8D0 1-64)
T1 construct: also called mBR3-ECD; mBR-ECD
T1 sequence: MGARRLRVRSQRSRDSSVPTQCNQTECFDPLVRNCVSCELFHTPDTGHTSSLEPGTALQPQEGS
Experimental Protocol: single spot phage competition ELISA; OD with competitor / OD without competitor; criterion met by the picked clones
Assay Endpoint: OD450nm reduction (%)

Challenge: Which value of OD450nm reduction (%) has been reported for V3-13 Fab (Fab, V domains shown, soluble Fab in SPR) VH: EVQLVESGGGLVQPGGSLRLSCAASGFTISRRSIHWVRQAPGKGLEWVAWITPSDGNTDYADSVKGRFTISADTSKNTAYLQMNSLRAEDTAVYYCARRVCYSSVRGCAGAMDYWGQGTLVTVSS VL: DIQMTQSPSSLSASVGDRVTITCRASQDVSTAVAWYQQKPGKAPKLLIYGASNLYSGVPSRFSGSGSGTDFTLTISSLQPEDFATYYCQQSHASPPTFGQGTKVEIKR in the records?
Response given: < 50%
